test-system: Recombinant human his-tagged IGF R extracellular domain protein (human) (UniProt P08069)
assay-protocol: SPR, Ab captured via anti-huIgG Fc, pH 7.4
# key: entry, value: pKd
A value of pKd is the negative decimal logarithm of a concentration given in moles per litre.

[Q] Field request: pKd | item: VRDN-02039 (antibody, V domains shown) VH: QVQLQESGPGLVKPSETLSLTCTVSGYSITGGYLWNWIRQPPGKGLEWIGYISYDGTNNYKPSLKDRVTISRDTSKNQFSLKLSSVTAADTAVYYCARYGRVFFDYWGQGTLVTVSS VL: DIVMTQSPLSLPVTPGEPASISCRSSQSIVHSNGHTYLQWYLQKPGQSPQLLIYKVSNRLYGVPDRFSGSGSGTDFTLKISRVEAEDVGVYYCFQGSHVPWTFGQGTKVEIK
[A] 9.23

[Q] Then VRDN-02028 (antibody, V domains shown) VH: QVQLQESGPGLVKPSETLSLTCTVSGYSITGGYLWNWIRQPPGKGLEWIGYISYDGTNNYKPSLKDRVTISRDTSKNQFSLKLSSVTAADTAVYYCARYGRVFFDHWGQGTLVTVSS VL: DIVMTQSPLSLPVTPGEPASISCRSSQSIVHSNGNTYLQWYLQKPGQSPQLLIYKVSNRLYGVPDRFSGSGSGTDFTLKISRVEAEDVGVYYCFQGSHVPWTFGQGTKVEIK ?
[A] 9.28

[Q] Then VRDN-02065 (antibody, V domains shown) VH: QVQLQESGPGLVKPSETLSLTCTVSGYSITGGYLWNWIRQPPGKGLEWIGYIHYDGTNNYKPSLKDRVTISRDTSKNQFSLKLSSVTAADTAVYYCARYGRVFFDYWGQGTLVTVSS VL: DIVMTQSPLSLPVTPGEPASISCRSSQSIVHSNGNTYLQWYLQKPGQSPQLLIYKVSNRLYGVPDRFSGSGSGTDFTLKISRVEAEDVGVYYCFQGSHVHWTFGQGTKVEIK ?
[A] 9.66

[Q] Then VRDN-02022 (antibody, V domains shown) VH: QVQLQESGPGLVKPSETLSLTCTVSGYSITGGYLWNWIRQPPGKGLEWIGYISYDGTNNYKPSLKDRVTISRDTSKNQFSLKLSSVTAADTAVYYCARYHRVFFDYWGQGTLVTVSS VL: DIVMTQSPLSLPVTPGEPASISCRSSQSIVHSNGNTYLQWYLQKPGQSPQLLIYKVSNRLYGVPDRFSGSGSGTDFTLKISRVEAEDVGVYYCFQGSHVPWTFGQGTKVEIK ?
[A] 8.08

[Q] Then VRDN-02009 (antibody, V domains shown) VH: QVQLQESGPGLVKPSETLSLTCTVSGYSITGGYHWNWIRQPPGKGLEWIGYISYDGTNNYKPSLKDRVTISRDTSKNQFSLKLSSVTAADTAVYYCARYGRVFFDYWGQGTLVTVSS VL: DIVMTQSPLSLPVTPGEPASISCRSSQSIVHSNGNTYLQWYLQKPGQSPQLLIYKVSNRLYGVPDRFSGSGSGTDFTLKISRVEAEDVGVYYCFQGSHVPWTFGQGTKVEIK ?
[A] 9.35
